# Study system: T1, C-terminal cargo-binding domain (CBD) of Myosin VI (residues 1157–1285) (human, UniProt Q9UM54-1 1157-1285)
# T1 construct: monomer by light scattering and ultracentrifugation; 15N-labelled in some NMR experiments; also called C-terminal CBD of Myosin VI; source: E. coli BL21 (DE3), purified (Ni-NTA, SEC); not shown: thioredoxin, N-terminal, cleaved; His6, N-terminal, cleaved
# T1 sequence (Q9UM54 1166-1294): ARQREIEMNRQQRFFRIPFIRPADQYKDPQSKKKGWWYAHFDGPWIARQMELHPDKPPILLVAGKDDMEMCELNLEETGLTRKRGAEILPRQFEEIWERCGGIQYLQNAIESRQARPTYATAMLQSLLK
# Assay overview: ITC; 25 °C, 20 mM Tris pH 7.9, 100 mM NaCl, 1 mM DTT; 50 µM protein in the cell, 500 µM in the syringe; one-site binding model
# Condition description: both partners purified
Reported pKd values follow for various binders
Would you please state pKd, meaning minus log10 of the concentration in mol/L, as a bare number?

Worked examples follow.
- Binder: "Tom1(392–493) (domain or fragment, human, UniProt O60784-2 392-493, looked up, 15N-labelled in one NMR titration; source: E. coli BL21 (DE3), purified (Ni-NTA, SEC); not shown: thioredoxin, N-terminal, cleaved; His6, N-terminal, cleaved) TDGLAGALDARQQSTGAIPVTQACLMEDIEQWLSTDVGNDAEEPKGVTSEGKFDKFLEERAKAADRLPNLSSPSAEGPPGPPSGPAPRKKTQEKDDDMLFAL"
  pKd: 6.03
- Binder: "Tom1(392–463) (domain or fragment, human, UniProt O60784-2 392-463, looked up, 15N-labelled in one NMR titration; source: E. coli BL21 (DE3), purified (Ni-NTA, SEC); not shown: thioredoxin, N-terminal, cleaved; His6, N-terminal, cleaved) TDGLAGALDARQQSTGAIPVTQACLMEDIEQWLSTDVGNDAEEPKGVTSEGKFDKFLEERAKAADRLPNLSS"
  pKd: 6.12
- Binder: "Tom1(437–493) (domain or fragment, human, UniProt O60784-2 437-493, looked up, source: E. coli BL21 (DE3), purified (Ni-NTA, SEC); not shown: thioredoxin, N-terminal, cleaved; His6, N-terminal, cleaved) GVTSEGKFDKFLEERAKAADRLPNLSSPSAEGPPGPPSGPAPRKKTQEKDDDMLFAL"
  pKd: 6.12

Could you now consider this next binder?
The measured pKd associated with GVTSEGKFDKFLEERAKAADRLPNLSS (domain or fragment, human, UniProt O60784-2 437-463, looked up, monomer by light scattering and ultracentrifugation; also called Tom1 MBM; source: E. coli BL21 (DE3), purified (Ni-NTA, SEC); not shown: thioredoxin, N-terminal, cleaved; His6, N-terminal, cleaved) [Tom1(437–463), Myosin VI-binding motif] reads 6.17
